Tested on: KP-1N (Pancreatic Carcinoma)
TEST NAME: combination Emax (second highest fraction inhibited in the dose matrix, 72 h); higher = more inhibition; extreme values may be limits of the assay
Each item that follows carries a reported combination Emax.
OBSERVABLE: combination Emax

INSERT INTO measurements (molecule, reported_result) VALUES
  ('Cn1cnc2c(F)c(Nc3ccc(Br)cc3Cl)c(C(=O)NOCCO)cc21 [Selumetinib] + C[C@@H]1COCCN1C2=NC(=NC(=C2)C3(CC3)[S@](=N)(=O)C)C4=C5C=CNC5=NC=C4 [AZD6738] (first compound max 10 µM, 7x7, partner max 10 µM)', 0.175),
  ('Cc1c2c(nn1C)CSCc1cc(n(C)n1)CSc1cc(c3ccccc3c1)OCCCc1c(C(=O)O)n(C)c3c-2c(Cl)ccc13 [AZD5991] + Cn1cnc2c(F)c(Nc3ccc(Br)cc3Cl)c(C(=O)NOCCO)cc21 [Selumetinib] (first compound max 1 µM, 7x7, partner max 3 µM)', 0.189),
  ('COc1cccc(OCCCN)c1-c1cc(Nc2cnc(C#N)cn2)n[nH]1 [Prexasertib] + C=CCn1c(=O)c2cnc(Nc3ccc(N4CCN(C)CC4)cc3)nc2n1-c1cccc(C(C)(C)O)n1 [AZD1775] (first compound max 1 µM, partner max 1 µM)', 0.575),
  ('CCc1c2c(nc3ccc(O)cc13)-c1cc3c(c(=O)n1C2)COC(=O)[C@]3(O)CC [SN-38] + O=C(c1cc(Cc2n[nH]c(=O)c3ccccc23)ccc1F)N1CCN(C(=O)C2CC2)CC1 [Olaparib] (first compound max 0.3 µM, 7x7, partner max 10 µM)', 0.645);

---

System: HOS (Osteosarcoma)
TEST NAME: Bliss excess, mean over the matrix (fraction); higher = more synergy
Item-by-item account of Bliss excess
OBSERVABLE: Bliss excess

INSERT INTO assay_data (compound, reported_result) VALUES
  ('NC1(C(=O)N[C@@H](CCO)c2ccc(Cl)cc2)CCN(c2ncnc3[nH]ccc23)CC1 [Capivasertib] + CCN(CCO)CCCOc1ccc2c(Nc3cc(CC(=O)Nc4cccc(F)c4)[nH]n3)ncnc2c1 [AZD2811] (first compound max 10 µM, 7x7, partner max 1 µM)', -0.0107),
  ('CN(C)CCCOc1ccc(-c2ccc3ncc4c(c3c2)n(C2CCOCC2)c(=O)n4C)cn1 [AZD0156] + C=CCn1c(=O)c2cnc(Nc3ccc(N4CCN(C)CC4)cc3)nc2n1-c1cccc(C(C)(C)O)n1 [AZD1775] (first compound max 1 µM, partner max 1 µM)', -0.0196),
  ('NC1(C(=O)N[C@@H](CCO)c2ccc(Cl)cc2)CCN(c2ncnc3[nH]ccc23)CC1 [Capivasertib] + C[C@@H]1COCCN1C2=NC(=NC(=C2)C3(CC3)[S@](=N)(=O)C)C4=C5C=CNC5=NC=C4 [AZD6738] (first compound max 10 µM, 7x7, partner max 10 µM)', -0.0463),
  ('NC1(C(=O)N[C@@H](CCO)c2ccc(Cl)cc2)CCN(c2ncnc3[nH]ccc23)CC1 [Capivasertib] + Cn1cnc2c(F)c(Nc3ccc(Br)cc3Cl)c(C(=O)NOCCO)cc21 [Selumetinib] (first compound max 10 µM, 7x7, partner max 10 µM)', 0.0007);

---

System: TCCSUP (Bladder Carcinoma)
TEST NAME: combination Emax (second highest fraction inhibited in the dose matrix, 72 h); higher = more inhibition; extreme values may be limits of the assay
OBSERVABLE: combination Emax

INSERT INTO assay_data (compound, observable, reported_result) VALUES
  ('CC1(C)CCC(CN2CCN(c3ccc(C(=O)NS(=O)(=O)c4ccc(NCC5CCOCC5)c([N+](=O)[O-])c4)c(Oc4cnc5[nH]ccc5c4)c3)CC2)=C(c2ccc(Cl)cc2)C1 [Venetoclax] + COc1cc(Nc2ncc3c(n2)-c2ccc(Cl)cc2C(c2c(F)cccc2OC)=NC3)ccc1C(=O)O [Alisertib] (first compound max 1 µM, 7x7, partner max 10 µM)', 'combination Emax', 0.475),
  ('COc1cccc(OCCCN)c1-c1cc(Nc2cnc(C#N)cn2)n[nH]1 [Prexasertib] + CCc1c2c(nc3ccc(O)cc13)-c1cc3c(c(=O)n1C2)COC(=O)[C@]3(O)CC [SN-38] (first compound max 1 µM, 7x7, partner max 0.3 µM)', 'combination Emax', 0.934);

---

Test system: TCCSUP (Bladder Carcinoma)
TEST NAME: Bliss excess, mean over the matrix (fraction); higher = more synergy
Bliss excess values for the compounds below.
OBSERVABLE: Bliss excess

INSERT INTO results (compound, tgt, observable, reported_result) VALUES
  ('CCN(CCO)CCCOc1ccc2c(Nc3cc(CC(=O)Nc4cccc(F)c4)[nH]n3)ncnc2c1 [AZD2811] + C=CCn1c(=O)c2cnc(Nc3ccc(N4CCN(C)CC4)cc3)nc2n1-c1cccc(C(C)(C)O)n1 [AZD1775] (first compound max 1 µM, partner max 1 µM)', 'TCCSUP (Bladder Carcinoma)', 'Bliss excess', -0.0204),
  ('CCc1c2c(nc3ccc(O)cc13)-c1cc3c(c(=O)n1C2)COC(=O)[C@]3(O)CC [SN-38] + CN(C)CCCOc1ccc(-c2ccc3ncc4c(c3c2)n(C2CCOCC2)c(=O)n4C)cn1 [AZD0156] (first compound max 0.3 µM, 7x7, partner max 1 µM)', 'TCCSUP (Bladder Carcinoma)', 'Bliss excess', 0.0859);

---

Tested on: HCC-78 (Lung Adenocarcinoma)
TEST NAME: Bliss excess, mean over the matrix (fraction); higher = more synergy
Could you label it Condition met if measured Bliss excess is -0.03 or higher, and Condition not met otherwise?

INSERT INTO measurements (compound, category_label) VALUES
  ('COc1nnc2ccc(N3CCC(c4ccc(OCCN5CCN(C)C(=O)[C@H]5C)cc4)CC3)nn12 [AZD5153] + CCN(CCO)CCCOc1ccc2c(Nc3cc(CC(=O)Nc4cccc(F)c4)[nH]n3)ncnc2c1 [AZD2811] (first compound max 1 µM, 7x7, partner max 1 µM)', 'Condition not met'),
  ('Cc1cc2ncnn2cc1Nc1ncc2c(n1)n(C1CCOCC1)c(=O)n2C [AZD7648] + COc1cc([C@@H]2c3cc4c(cc3[C@@H](O[C@@H]3O[C@@H]5CO[C@@H](C)O[C@H]5[C@H](O)[C@H]3O)[C@H]3COC(=O)[C@H]23)OCO4)cc(OC)c1O [Etoposide] (first compound max 10 µM, 7x7, partner max 10 µM)', 'Condition met'),
  ('Cc1c2c(nn1C)CSCc1cc(n(C)n1)CSc1cc(c3ccccc3c1)OCCCc1c(C(=O)O)n(C)c3c-2c(Cl)ccc13 [AZD5991] + CC1(C)CCC(CN2CCN(c3ccc(C(=O)NS(=O)(=O)c4ccc(NCC5CCOCC5)c([N+](=O)[O-])c4)c(Oc4cnc5[nH]ccc5c4)c3)CC2)=C(c2ccc(Cl)cc2)C1 [Venetoclax] (first compound max 1 µM, 7x7, partner max 1 µM)', 'Condition met'),
  ('COc1cccc(OCCCN)c1-c1cc(Nc2cnc(C#N)cn2)n[nH]1 [Prexasertib] + O=C(c1cc(Cc2n[nH]c(=O)c3ccccc23)ccc1F)N1CCN(C(=O)C2CC2)CC1 [Olaparib] (first compound max 1 µM, 7x7, partner max 10 µM)', 'Condition not met'),
  ('CCN(CCO)CCCOc1ccc2c(Nc3cc(CC(=O)Nc4cccc(F)c4)[nH]n3)ncnc2c1 [AZD2811] + O=C(c1cc(Cc2n[nH]c(=O)c3ccccc23)ccc1F)N1CCN(C(=O)C2CC2)CC1 [Olaparib] (first compound max 1 µM, 7x7, partner max 10 µM)', 'Condition met'),
  ('Cc1c2c(nn1C)CSCc1cc(n(C)n1)CSc1cc(c3ccccc3c1)OCCCc1c(C(=O)O)n(C)c3c-2c(Cl)ccc13 [AZD5991] + Cc1cc2ncnn2cc1Nc1ncc2c(n1)n(C1CCOCC1)c(=O)n2C [AZD7648] (first compound max 1 µM, 7x7, partner max 10 µM)', 'Condition met'),
  ('CC1(C)CCC(CN2CCN(c3ccc(C(=O)NS(=O)(=O)c4ccc(NCC5CCOCC5)c([N+](=O)[O-])c4)c(Oc4cnc5[nH]ccc5c4)c3)CC2)=C(c2ccc(Cl)cc2)C1 [Venetoclax] + C[C@@H](Nc1cc(F)cc(F)c1)c1cc(C(=O)N(C)C)cc2c(=O)cc(N3CCOCC3)oc12 [AZD8186] (first compound max 1 µM, 7x7, partner max 3 µM)', 'Condition not met'),
  ('COc1cccc2c1C(=O)c1c(O)c3c(c(O)c1C2=O)C[C@@](O)(C(=O)CO)C[C@@H]3O[C@H]1C[C@H](N)[C@H](O)[C@H](C)O1 [Doxorubicin] + Cc1cc2ncnn2cc1Nc1ncc2c(n1)n(C1CCOCC1)c(=O)n2C [AZD7648] (first compound max 1 µM, 7x7, partner max 10 µM)', 'Condition met'),
  ('Cc1c2c(nn1C)CSCc1cc(n(C)n1)CSc1cc(c3ccccc3c1)OCCCc1c(C(=O)O)n(C)c3c-2c(Cl)ccc13 [AZD5991] + C=CCn1c(=O)c2cnc(Nc3ccc(N4CCN(C)CC4)cc3)nc2n1-c1cccc(C(C)(C)O)n1 [AZD1775] (first compound max 1 µM, partner max 1 µM)', 'Condition not met'),
  ('C=CCn1c(=O)c2cnc(Nc3ccc(N4CCN(C)CC4)cc3)nc2n1-c1cccc(C(C)(C)O)n1 [AZD1775] + C[C@@H]1COCCN1C2=NC(=NC(=C2)C3(CC3)[S@](=N)(=O)C)C4=C5C=CNC5=NC=C4 [AZD6738] (first compound max 1 µM, partner max 10 µM)', 'Condition met'),
  ('Cn1cnc2c(F)c(Nc3ccc(Br)cc3Cl)c(C(=O)NOCCO)cc21 [Selumetinib] + CC(C)n1c(=O)n(C)c2cnc3cc(F)c(-c4ccc(OCCCN5CCCCC5)nc4)cc3c21 [AZD1390] (first compound max 10 µM, 7x7, partner max 0.3 µM)', 'Condition not met'),
  ('C[C@@H]1COCCN1c1cc(C2([S@](C)(=N)=O)CC2)nc(-c2ccnc3[nH]ccc23)n1 [AZD6738] + O=C(c1cc(Cc2n[nH]c(=O)c3ccccc23)ccc1F)N1CCN(C(=O)C2CC2)CC1 [Olaparib] (first compound max 10 µM, 7x7, partner max 10 µM)', 'Condition met'),
  ('NC1(C(=O)N[C@@H](CCO)c2ccc(Cl)cc2)CCN(c2ncnc3[nH]ccc23)CC1 [Capivasertib] + C[C@@H]1COCCN1C2=NC(=NC(=C2)C3(CC3)[S@](=N)(=O)C)C4=C5C=CNC5=NC=C4 [AZD6738] (first compound max 10 µM, 7x7, partner max 10 µM)', 'Condition met');
